Origin of the recorded values: patent US9066518B2

# method: logP determination (neutral / HCOOH)
# measurement.setup: HCOOH (formic acid), logP (HCOOH), HCOOH
Assign True whenever chromatographic logP does not fall below 2; assign False whenever it does.

Please review the following examples before continuing.
COc1cc(OC)nc(-c2nccc(-c3cnn(-c4cccnc4)c3)n2)n1 False
Brc1cncc(-n2cc(-c3cccc(-c4ncccn4)n3)cn2)c1 True
c1ccc(-c2ccn(-c3cnn(-c4cccnc4)c3)n2)nc1 False
ClC1(c2cccc(-c3cnn(-c4cccnc4)c3)n2)CC1 True
CC(=O)Nc1cccc(-c2cnn(-c3cccnc3)c2)n1 False
N#Cc1cncc(-n2cc(-c3cccc(-c4ncccn4)n3)cn2)c1 False
CC1(c2cccc(-c3cnn(-c4cccnc4)c3)n2)OCCCO1 False
c1cncc(-n2cc(-c3cccc(C4=NCCO4)n3)cn2)c1 False

Given the entry `CC(C)(C)OC(=O)Nc1cccc(-c2cnn(-c3cccnc3)c2)n1` , answer whether its chromatographic logP meets or surpasses 2.
True

* * *

# method: logP determination (neutral / HCOOH)
# measurement.setup: HCOOH (formic acid), logP (HCOOH), HCOOH
Recorded chromatographic logP split into classes class 1: < 1; class 2: ≥ 1 and < 2; class 3: ≥ 2

Please review the following examples before continuing.
compound	cat
N=C(NO)c1cccc(-c2cnn(-c3cccnc3)c2)n1 [Example 114]	class 1
Clc1ccc(-c2cnn(-c3cccnc3)c2)cc1 [Example 51]	class 3
c1cnc(-c2cccc(-c3cnn(-c4cncnc4)c3)n2)nc1 [Example 34]	class 2
c1cncc(-n2cc(-c3cccc(-c4nnn[nH]4)n3)cn2)c1 [Example 96]	class 2
c1cncc(-n2cc(-c3ccncc3)cn2)c1 [Example 101]	class 1
FC(F)(F)COc1cccc(-c2cnn(-c3cccnc3)c2)n1 [Example 25]	class 3
O=C(c1cccc(-c2cnn(-c3cccnc3)c2)n1)N1CCOCC1 [Example 18]	class 2
CS(=O)(=O)c1cccc(-c2cnn(-c3cccnc3)c2)n1 [Example 56]	class 2

Into which bin does this compound go? O=Cc1cccc(-c2cnn(-c3cccnc3)c2)n1 [Example 110]
class 2

Into which bin does this compound go? c1cncc(-n2cc(-c3cccc(-c4noc(C5CC5)n4)n3)cn2)c1 [Example 62]
class 3

* * *

# method: logP determination (neutral / HCOOH)
# measurement.setup: HCOOH (formic acid), logP (HCOOH), HCOOH
Recorded chromatographic logP split into classes class 1 = under 1, class 2 = from 1 up to 2, class 3 = 2 and over

Into which bin does this compound go? CC1OC(c2cccc(-c3cnn(-c4cccnc4)c3)n2)OC1C (centres unmarked)
class 3

Into which bin does this compound go? `CC(F)(F)c1cccc(-c2cnn(-c3cccnc3)c2)n1`
class 3

* * *

# method: logP determination (neutral / HCOOH)
# measurement.setup: logP (neutral), neutral
Each entry below carries its reported logP.
Reply: number alone, nothing else.

Fc1cncc(-n2cc(-c3cccc(C(F)(F)F)n3)cn2)c1 3.14

Query `N=C(NO)c1cccc(-c2cnn(-c3cccnc3)c2)n1` yields logP of 1.23

Query `COCC1(c2cccc(-c3cnn(-c4cccnc4)c3)n2)OCCCO1` yields logP of 1.69

Query `c1cncc(-n2cc(-c3cccc(-c4ncco4)n3)cn2)c1` yields logP of 1.69

Query `CCOC(=O)c1cccc(-c2cnn(-c3cccnc3)c2)n1` yields logP of 1.96

* * *

# method: logP determination (neutral / HCOOH)
# measurement.setup: HCOOH (formic acid), logP (HCOOH), HCOOH
metric.name: chromatographic logP
Reply: number alone, nothing else.

compound	value.reported
c1cnc(-c2ccnn2-c2cnn(-c3cccnc3)c2)nc1 [Example 93]	1.16

Query O=c1ccccn1-c1cccc(-c2cnn(-c3cccnc3)c2)n1 [Example 89] yields chromatographic logP of 1.37

Query Cn1c(C(F)(F)F)nn(-c2cccc(-c3cnn(-c4cccnc4)c3)n2)c1=O [Example 16] yields chromatographic logP of 2.1

Query c1cncc(-n2cc(-c3cnn(-c4cccnc4)c3)cn2)c1 [Example 112] yields chromatographic logP of 1.37
